Tested on: NCI-H522 lung
Assay: NCI tumour cell line growth inhibition, 48 h; in the data active = GI50 below about 0.43 µM; inactive = the rest
The reply should be one of these categories: y = active, n = inactive

{"compound": "O=C(CC(=O)c1ccccc1)c1ccccc1", "class-name": "n"}
{"compound": "ClCC#CCSc1ncnc2c1ncn2CC#CCCl", "class-name": "n"}
{"compound": "CO[C@H](C(=O)O)[C@@H]1Cc2cc3cc(OC4CC(OC5CC(O)C(O)C(C)O5)C(O)C(C)O4)c(C)c(O)c3c(O)c2C(=O)[C@H]1OC1CC(OC2CC(OC3CC(C)(O)C(O)C(C)O3)C(O)C(C)O2)C(O)C(C)O1 (stereo not given in full)", "class-name": "y"}
{"compound": "CC(=O)C1(O)Cc2c(O)c3c(c(O)c2C(OC2CC(N)C(O)C(C)O2)C1)C(=O)c1ccccc1C3=O (stereo not given)", "class-name": "y"}

Let us examine a further case.
# outcome recorded in this test, key = Cc1c(C(=O)O[C@H]2[C@@H]3[C@H](C)CC[C@H]3[C@]3(C)O[C@@]2(C2CCCCC2)C[C@H]3OC(=O)CO)ccc2ccccc12
n
